Data provenance: patent EP4752142A1

Molecular target: 5-HT2A receptor (Homo sapiens, UniProt P28223)
Sequence (P28223 whole entry): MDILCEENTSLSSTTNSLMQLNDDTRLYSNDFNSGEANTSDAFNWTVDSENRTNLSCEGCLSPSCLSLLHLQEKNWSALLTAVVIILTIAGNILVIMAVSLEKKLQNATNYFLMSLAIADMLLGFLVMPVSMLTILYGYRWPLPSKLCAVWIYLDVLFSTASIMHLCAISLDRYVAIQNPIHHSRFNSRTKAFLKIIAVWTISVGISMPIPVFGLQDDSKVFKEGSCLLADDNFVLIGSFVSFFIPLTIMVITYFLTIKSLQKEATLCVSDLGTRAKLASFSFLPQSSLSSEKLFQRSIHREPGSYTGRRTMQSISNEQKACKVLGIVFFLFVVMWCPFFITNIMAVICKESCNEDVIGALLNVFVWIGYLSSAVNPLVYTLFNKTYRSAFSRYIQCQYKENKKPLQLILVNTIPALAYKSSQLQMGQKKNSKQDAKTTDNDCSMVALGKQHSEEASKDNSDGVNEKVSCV
Assay: 5-HT2AR calcium flux activation assay
Type: cell-based
Design: expressed in transfected cells; host or cells: HEK293
quantity: EC50
Remember to follow the number with its unit.

stdin: What EC50 value was documented for this molecule, c1ccc2c(C3CCN(CCc4nnc5ccccn45)C3)c[nH]c2c1 (stereo not drawn) ?
stdout: 45.9 nM

stdin: What EC50 value was documented for this molecule, Oc1cccc2[nH]cc(C3CCN(CCCn4ncc(C5CC5)n4)C3)c12 (stereo not drawn) ?
stdout: 10.7 nM

stdin: What EC50 value was documented for this molecule, Oc1cc(F)cc2[nH]cc(C3CCN(CCCn4nccn4)C3)c12 (stereo not drawn) ?
stdout: 8.72 nM
